Target Entity: Ataxin-2 (Homo sapiens)
Experiment Summary: qHTS for Inhibitors of ATXN expression.
Format: functional
The whole screen tested about 400,000 compounds, of which about 2,100 (0.53%) were called active. Roughly 14% stayed inconclusive and do not appear here. How the calls were made is not given here. Shown is part of a subset that was picked to be rich in actives.
Pick one: active, inactive

Which outcome did this test record for the compound CN(Cc1ccc(Cl)cc1)C(=O)CCl ?
active

Which outcome did this test record for the compound CC(C)N1CCN(Cc2ccc(C#CCCO)cc2)CC1CCO (stereo not drawn) ?
inactive

More entries:
Which outcome did this test record for the compound CC(C)N1CCc2c(sc(NC(=O)Cc3ccccc3)c2C#N)C1 ?
inactive

---

Target Entity: Ataxin-2 (Homo sapiens) (UniProt Q99700)
Sequence (Q99700 whole entry): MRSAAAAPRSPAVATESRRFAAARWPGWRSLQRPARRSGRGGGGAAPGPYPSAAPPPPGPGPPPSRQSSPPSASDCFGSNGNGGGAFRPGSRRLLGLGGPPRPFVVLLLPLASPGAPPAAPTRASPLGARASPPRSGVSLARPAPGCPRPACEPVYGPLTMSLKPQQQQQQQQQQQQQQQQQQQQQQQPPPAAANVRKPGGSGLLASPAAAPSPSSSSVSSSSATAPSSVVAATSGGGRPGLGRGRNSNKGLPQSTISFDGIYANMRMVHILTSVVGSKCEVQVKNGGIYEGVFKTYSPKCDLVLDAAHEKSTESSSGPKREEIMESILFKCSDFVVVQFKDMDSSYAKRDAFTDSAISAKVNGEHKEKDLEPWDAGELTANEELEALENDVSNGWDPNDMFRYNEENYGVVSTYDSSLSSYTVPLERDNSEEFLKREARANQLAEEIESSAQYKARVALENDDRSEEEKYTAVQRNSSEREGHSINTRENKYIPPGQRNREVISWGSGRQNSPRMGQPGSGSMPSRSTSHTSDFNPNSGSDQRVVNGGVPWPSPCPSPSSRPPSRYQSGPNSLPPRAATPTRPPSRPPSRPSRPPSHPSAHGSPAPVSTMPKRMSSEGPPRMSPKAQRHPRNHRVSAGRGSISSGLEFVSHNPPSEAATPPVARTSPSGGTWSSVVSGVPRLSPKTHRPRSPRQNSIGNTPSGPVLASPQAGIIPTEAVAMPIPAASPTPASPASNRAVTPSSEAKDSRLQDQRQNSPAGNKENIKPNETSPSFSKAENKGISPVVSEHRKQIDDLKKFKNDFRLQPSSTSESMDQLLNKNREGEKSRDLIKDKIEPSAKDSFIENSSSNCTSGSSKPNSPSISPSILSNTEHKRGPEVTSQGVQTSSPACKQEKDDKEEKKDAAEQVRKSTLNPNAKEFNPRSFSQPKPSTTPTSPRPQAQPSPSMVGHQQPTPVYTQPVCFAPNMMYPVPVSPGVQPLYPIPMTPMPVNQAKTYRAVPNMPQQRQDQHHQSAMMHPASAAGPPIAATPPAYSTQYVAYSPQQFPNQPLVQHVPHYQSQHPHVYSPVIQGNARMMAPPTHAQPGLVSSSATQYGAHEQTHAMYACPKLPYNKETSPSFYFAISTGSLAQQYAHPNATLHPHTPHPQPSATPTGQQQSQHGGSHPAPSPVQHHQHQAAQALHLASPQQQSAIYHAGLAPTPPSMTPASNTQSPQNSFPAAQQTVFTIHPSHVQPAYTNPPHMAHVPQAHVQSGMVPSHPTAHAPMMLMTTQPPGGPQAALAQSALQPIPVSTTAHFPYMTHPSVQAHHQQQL
Experiment Summary: qHTS for Inhibitors of ATXN expression.
Format: functional
The whole screen tested about 400,000 compounds, of which about 2,100 (0.53%) were called active. Not shown: some 14% with an inconclusive outcome. How the calls were made is not given here. This is one part of a sample in which actives are shown more often than they occur.
Pick one: 1 = active, -1 = inactive

Which outcome did this test record for the molecule O=C(CN(Cc1ccccc1)C(=O)c1csnn1)NCCc1ccccc1 ?
-1

Which outcome did this test record for the molecule C=CCNC(=O)/C(C#N)=C/c1c(N2CCN(c3ccccc3)CC2)nc2c(C)cccn2c1=O ?
-1

Which outcome did this test record for the molecule Cc1nc(CS(=O)(=O)c2ccccn2)sc1C(=O)NNC(=O)c1ccc(Cl)cc1 ?
-1

Which outcome did this test record for the molecule C[C@@H]1CN([C@H](C)CO)C(=O)c2cccc(NC(=O)Nc3ccc(C(F)(F)F)cc3)c2O[C@H]1CN(C)S(=O)(=O)c1cccs1 ?
1

Which outcome did this test record for the molecule Cc1cccn2c(=O)c3cc(C(=O)NC(C)c4ccccc4)c(=N)n(CCOCCO)c3nc12 (centres undefined) ?
-1

--- query ---
Which outcome did this test record for the molecule O=C(NCc1ccccc1Cl)c1ccc2c(=O)n(CC3CCCO3)c(=S)[nH]c2c1 (centres undefined) ?
-1

---

Target Entity: Ataxin-2 (Homo sapiens)
Experiment Summary: qHTS for Inhibitors of ATXN expression.
Assay type: functional
The campaign covered roughly 400,000 compounds. About 2,100 (0.53%) were called active. About 14% were inconclusive and are not listed. How the calls were made is not given here. The entries come from a sample that favours actives as a whole.
Pick one: active, inactive

Recorded results for 10 compounds are shown here.
Which outcome did this test record for the compound O=[N+]([O-])c1ccc(/C=N/n2cnc3ccccc32)s1 ?
active

Which outcome did this test record for the compound CCOCCCn1c(=N)c(C(=O)NCc2cccnc2)cc2c(=O)n3cc(C)ccc3nc21 ?
inactive

Which outcome did this test record for the compound CCN1C(=O)c2cccc3c(S(=O)(=O)NCc4cccnc4)ccc1c23 ?
inactive

Which outcome did this test record for the compound COc1cc2c(cc1OC)CN(C1CCC(C(C)(C)C)CC1)CC2 (configuration not stated) ?
inactive

Which outcome did this test record for the compound CCN(CC(=O)Nc1cc(Cl)ccc1C)C(=O)C1CCCCC1 ?
inactive

Which outcome did this test record for the compound COc1cc2c(cc1OC)C(c1ccccc1Cl)N(C)CC2 (configuration not stated) ?
inactive

Which outcome did this test record for the compound COc1ccc(/C=N/NC(=O)Nc2cccc3nsnc23)cc1 ?
inactive

Which outcome did this test record for the compound COc1ccc(C2C=C(c3ccccc3)Nc3nc(NS(=O)(=O)c4ccccc4)nn32)cc1 (configuration not stated) ?
inactive

Which outcome did this test record for the compound Cc1ccc(C#N)c(SCC(=O)Nc2nccs2)n1 ?
inactive

Which outcome did this test record for the compound C=CCSc1nc2ccccc2n2cnnc12 ?
active

More entries:
Which outcome did this test record for the compound CCC(C)N(CC(=O)Nc1cccc(C)c1C)C(=O)CCl (configuration not stated) ?
active

Which outcome did this test record for the compound C/C=C(\C)C(=O)OC1CC(C)(C)C[C@H]2C3=CC[C@@H]4[C@@]5(C)CCC(O[C@@H]6O[C@@H](C(=O)O)[C@@H](O)C(O[C@@H]7OC[C@H](O)[C@@H](O)[C@@H]7O[C@@H]7OC(CO)C(O)[C@@H](O)[C@@H]7O)C6O[C@@H]6OC(CO)C(O)C(O)C6O)[C@@](C)(CO)[C@@H]5CC[C@]4(C)[C@]3(C)CC(O)[C@@]12CO (some centres not stated) ?
active

---

Target Entity: Ataxin-2 (Homo sapiens) (UniProt Q99700)
Experiment Summary: qHTS for Inhibitors of ATXN expression.
Type: functional
In all, about 400,000 compounds went through this assay and about 2,100 (0.53%) were called active. Roughly 14% stayed inconclusive and do not appear here. How the calls were made is not given here. The sample holds actives, similar compounds and a random draw of the others, so the mix is not that of the screen.
Pick one: active, inactive

Recorded results for 3 compounds are shown here.
Which outcome did this test record for the compound CCN1C(=O)c2cccc3c(S(=O)(=O)N4CCNCC4)ccc1c23 ?
inactive

Which outcome did this test record for the compound CC(C)CNC(=O)COC(=O)c1c2c(nc3ccccc13)/C(=C/c1cccs1)CC2 ?
inactive

Which outcome did this test record for the compound Cc1ccc(C)c(-n2c(N)c(C#N)c3nc4ccccc4nc32)c1 ?
inactive

More entries:
Which outcome did this test record for the compound CCN(CC)c1ccc2cc(C#N)c(=O)oc2c1 ?
inactive

Which outcome did this test record for the compound Cc1ccc2sc(N(CCCN(C)C)C(=O)c3ccc(S(=O)(=O)N(C)C4CCCCC4)cc3)nc2c1C ?
active

Which outcome did this test record for the compound COc1cc(CNCCc2c[nH]c3ccccc23)ccc1OCc1ccc(F)cc1 ?
active

Which outcome did this test record for the compound O=c1oc2ccc3ccccc3c2cc1-c1nc2ccccc2o1 ?
inactive

---

Target Entity: Ataxin-2 (Homo sapiens) (UniProt Q99700)
Experiment Summary: qHTS for Inhibitors of ATXN expression.
Assay type: functional
Out of some 400,000 compounds screened, about 2,100 (0.53%) were called active. Not shown: some 14% with an inconclusive outcome. The entries come from a sample that favours actives as a whole.
Experimental Endpoint: Potency

Recorded Potency, per entry:
Note down Potency recorded for CCCc1cc(=O)oc2cc(OCC(=O)NCCN3CCOCC3)c(Cl)cc12
inactive

Note down Potency recorded for COc1ccccc1-c1cc(SC)c(C#N)c(=O)o1
35.5 µM (active)

Note down Potency recorded for COc1cc(CNCCCN2CCOCC2)cc(Br)c1OCc1ccc(Cl)cc1
33.6 µM (active)

Note down Potency recorded for Cc1cc(OC(C)C(=O)NC2CC(C)(C)NC(C)(C)C2)c2c(C)c(C)c(=O)oc2c1 (stereo not given)
inactive

Note down Potency recorded for Oc1nc2ccccc2nc1Cc1ccc(Cl)cc1
inactive

More entries:
Note down Potency recorded for CCCCCn1cc[n+](-c2nc3ccccc3nc2[N-]S(=O)(=O)c2ccccc2)c1
inactive

Note down Potency recorded for COCCn1c(SCC(=O)NCc2ccc(OC)c(OC)c2)nc2ccccc21
inactive

Note down Potency recorded for CCCCCCCCN1C(=O)[C@H](CC(=O)NCc2ccc(OC)c(OC)c2)C[C@@]2(C(=O)OC)CCCCC=C12
35.5 µM (active)

Note down Potency recorded for COCCCn1c(=N)c(C(=O)NCC2CCCO2)cc2c(=O)n3cccc(C)c3nc21 (stereo not given)
inactive

Note down Potency recorded for COc1cc2c(cc1OC)C1=C(C#N)CC/C(=N\S(=O)(=O)c3ccccc3)N1CC2
inactive

Note down Potency recorded for COc1ccc(CCNc2ncnc3c2oc2ccccc23)cc1OC
31.6 µM (active)

Note down Potency recorded for Cc1ccc(N(Cc2cc3ccccc3nc2O)C(=O)c2cccs2)cc1
inactive

Note down Potency recorded for COc1cc(CNCCN2CCOCC2)ccc1OCc1ccc(Cl)cc1Cl
25.1 µM (active)

Note down Potency recorded for CCOC(=O)C1=C(Nc2ccccc2)S/C(=C\c2ccc(OCC(=O)O)c(OCC)c2)C1=O
inactive

Note down Potency recorded for O=S(=O)(c1ccc(Cl)cc1)N(Cc1cccnc1)Cc1cc2ccccc2nc1O
25.1 µM (active)

Note down Potency recorded for Cc1cc(-c2sccc2Br)nc(-n2cccc2)n1
inactive

Note down Potency recorded for COC(=O)[C@]12CCCCC=C1N(Cc1ccc(Cl)cc1Cl)C(=O)[C@H](CC(=O)NCc1ccc(OC)c(OC)c1)C2
25.1 µM (active)

Note down Potency recorded for CCN(CC)C(=O)CSc1nc2ccccc2c(=O)n1CCC(=O)N1CCN(c2ccccc2)CC1
inactive

Note down Potency recorded for COc1ccc(CCN(C)C(=O)c2cc(=O)c3ccccc3o2)cc1OC
inactive

Note down Potency recorded for CCCOc1ccc(N2CC(C(=O)NCCc3ccc(OC)c(OC)c3)CC2=O)cc1 (stereo not given)
inactive

---

Target Entity: Ataxin-2 (Homo sapiens)
Experiment Summary: qHTS for Inhibitors of ATXN expression.
Assay type: functional
About 2,100 (0.53%) of roughly 400,000 compounds were called active. About 14% were inconclusive and are not listed. How the calls were made is not given here. Only a selection was taken, and actives are over-represented in it overall.
Pick one: yes (1) for active, no (0) for inactive

Recorded results for 3 compounds are shown here.
Which outcome did this test record for the compound COc1ccc(OC)c(NC(=O)c2ccc(OC3CSC3)cc2)c1 ?
no (0)

Which outcome did this test record for the compound CN1CCN(S(=O)(=O)c2ccc(Sc3nnnn3-c3ccccc3)c([N+](=O)[O-])c2)CC1 ?
yes (1)

Which outcome did this test record for the compound COC(=O)c1ccc(NC(=O)c2c(NCc3ccc(OC)c(OC)c3)sc3c2CCCC3)cc1 ?
yes (1)

More entries:
Which outcome did this test record for the compound Cc1ccc(C2(c3ccc(C)cc3)CC2C(=O)Nc2ccc([N+](=O)[O-])cc2O)cc1 (configuration not stated) ?
yes (1)

Which outcome did this test record for the compound COc1ccc(CNC2=NC(=O)CC(C(=O)Nc3ccc([N+](=O)[O-])cc3C)S2)cc1 (configuration not stated) ?
no (0)

Which outcome did this test record for the compound O=[N+]([O-])c1ccccc1S(=O)(=O)N1CCN(Cc2ccccc2)CC1 ?
no (0)

Which outcome did this test record for the compound COc1ccc(OC)c(NC(=O)c2c(NCc3ccc(OC)c(OC)c3)sc3c2CCC3)c1 ?
yes (1)

Which outcome did this test record for the compound COc1ccc(NC(=O)c2ccc(S(=O)(=O)C(F)F)cc2)c(OC)c1 ?
no (0)

Which outcome did this test record for the compound [N-]=[N+]=CC(=O)CNC(=O)[C@@H](Cc1ccccc1)N1C(=O)c2ccccc2C1=O ?
yes (1)

Which outcome did this test record for the compound CCC(=O)Oc1ccc2c(c1)O/C(=C\c1ccco1)C2=O ?
no (0)

# credit: ChEMBL document CHEMBL1201862
